Each recorded value in this set is attributed to patent US20260116991A1.

molecular target: monkey GPC3-His protein (monkey); assay: ELISA, monkey GPC3-His coated; antibody 0.004 nM
Recorded OD450 nm values for a group of binders are listed next.
# answer = number (no unit)

hAb006LH3L1a (antibody, human IgG1, V domains shown) VH: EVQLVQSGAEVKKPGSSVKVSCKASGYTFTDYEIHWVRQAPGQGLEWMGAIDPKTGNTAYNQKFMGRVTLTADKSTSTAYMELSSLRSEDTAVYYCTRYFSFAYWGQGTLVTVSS VL: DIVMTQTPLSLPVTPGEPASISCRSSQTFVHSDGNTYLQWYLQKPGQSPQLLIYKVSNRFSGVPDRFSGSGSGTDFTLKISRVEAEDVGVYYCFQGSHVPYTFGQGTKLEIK : 0.057

Shifting focus to the binder that follows.
OD450 nm recorded for this binder, hAb007LH2L1 (antibody, human IgG1, V domains shown) VH: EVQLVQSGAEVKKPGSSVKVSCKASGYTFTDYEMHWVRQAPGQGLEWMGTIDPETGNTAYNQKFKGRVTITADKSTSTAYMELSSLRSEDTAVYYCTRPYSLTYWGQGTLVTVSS VL: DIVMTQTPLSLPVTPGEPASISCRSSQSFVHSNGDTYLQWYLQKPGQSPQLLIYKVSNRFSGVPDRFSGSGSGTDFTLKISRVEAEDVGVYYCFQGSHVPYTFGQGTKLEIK , is 0.253
